System: Brown Rust (Puccinia recondita) on wheat
Assay: Greenhouse crop test: control of Brown Rust on wheat in combination with commercial fungicides
Format: in vivo
Details: with Balaya 0.25 L/ha; wheat JB Diego; inoculated 24 hours after treatment; evaluated at fourteen days
Attribute Measured: Balaya (% control of the disease, compound + fungicide)
# include the unit after the value

Look up Balaya (% control of the disease, compound + fungicide) for this molecule: Cc1cccc(NS(=O)(=O)c2ccc(C(C)C)cc2)c1 [Compound A-59] 50.0%

Look up Balaya (% control of the disease, compound + fungicide) for this molecule: Cc1ccnc(NS(=O)(=O)c2ccc(CC#N)cc2)n1 [Compound A-21] 39.0%

Look up Balaya (% control of the disease, compound + fungicide) for this molecule: Cc1ccc(C(=O)N(C)C)cc1NS(=O)(=O)c1ccc(-c2ccccc2)cc1 [Compound A-108] 31.7%

Look up Balaya (% control of the disease, compound + fungicide) for this molecule: O=S(=O)(Nc1ccc2c(c1)CCCN2)c1ccc(-c2ccccc2)cc1 [Compound A-99] 84.1%

Next, consider the following molecule.
Look up Balaya (% control of the disease, compound + fungicide) for this molecule: O=S(=O)(Nc1cccc(C(F)(F)F)c1)c1cnc(-c2ccccc2)nc1 [Compound A-37] 78.0%
